Where these numbers come from: ChEMBL document CHEMBL6127076

Each entry below lists one item and its recorded IC50 value.
- Target under test: Cytochrome P450 2C19 (Homo sapiens, UniProt P33261)
- Sequence (P33261 whole entry): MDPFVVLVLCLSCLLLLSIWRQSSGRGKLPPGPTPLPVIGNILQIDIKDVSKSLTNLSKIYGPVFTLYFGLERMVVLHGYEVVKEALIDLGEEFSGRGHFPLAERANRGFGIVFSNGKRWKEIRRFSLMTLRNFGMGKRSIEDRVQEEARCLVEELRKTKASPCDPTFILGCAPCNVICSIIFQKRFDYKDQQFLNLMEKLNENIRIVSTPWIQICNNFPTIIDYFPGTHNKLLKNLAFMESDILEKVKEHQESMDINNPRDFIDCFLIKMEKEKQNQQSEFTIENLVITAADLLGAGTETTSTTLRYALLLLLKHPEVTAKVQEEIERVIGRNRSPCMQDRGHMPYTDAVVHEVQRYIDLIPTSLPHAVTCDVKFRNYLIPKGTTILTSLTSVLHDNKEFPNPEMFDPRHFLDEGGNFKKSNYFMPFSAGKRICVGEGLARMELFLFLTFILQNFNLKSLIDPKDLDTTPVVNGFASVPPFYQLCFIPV
Respond numerically; units are µM and should not be typed.

| Chem smiles | Target under test | Measurement units | IC50 |
| --- | --- | --- | --- |
| COc1ccc(N2C(=O)C(C)(C)N(Cc3ccc(Br)c(C)c3)C2=S)cc1 | Cytochrome P450 2C19 (Homo sapiens, UniProt P33261) | µM | 1.4 |
| CC1(C)C(=O)N(c2ccc(Oc3ccccc3)cc2)C(=S)N1Cc1ccc(S(N)(=O)=O)c(F)c1 | Cytochrome P450 2C19 (Homo sapiens, UniProt P33261) | µM | 4.43 |

Now look at this one.
Please report the measured IC50 for COc1ccc(N2C(=O)C(C)(C)N(Cc3ccc(C)c(C)c3)C2=S)cc1 tested on Cytochrome P450 2C19 (Homo sapiens, UniProt P33261). 2.95
